- experimentalSystem: recombinant human ALK protein (Homo sapiens)
- Construct: purchased Life Technologies Inc. PV3867
- procedureDetails: LanthaScreen TR-FRET in vitro inhibitory activity assay of ALK
- Type: biochemical
- conditionInfo: compound at 2ug/ml
parameter: Averaged Enzymatic Inhibition @ 2ug/ml (%)

[[record]]
compound = "c1ccc(-c2oc3ncn4nc(CSc5nc6ccccc6s5)nc4c3c2-c2ccccc2)cc1 [AG-690/12869680]"
valueunits = "%"
measurednumber = -1.245

[[record]]
compound = "CCc1ccc(-n2c(CSc3nnnn3-c3ccccc3)nc3ccccc3c2=O)cc1 [AG-205/37086057]"
valueunits = "%"
measurednumber = 40.815

[[record]]
compound = "c1ccc2c(c1)Oc1ccccc1C2=C1c2ccccc2Oc2ccccc21 [AG-690/36541063]"
valueunits = "%"
measurednumber = 11.335

[[record]]
compound = "O=C1c2ccccc2-c2c1c(-c1cccc(Oc3ccccc3)c1)nc1ccc3ccccc3c21 [AG-690/12869023]"
valueunits = "%"
measurednumber = 12.235


###

- experimentalSystem: recombinant human ALK protein (Homo sapiens, UniProt Q9UM73)
- Construct: purchased Life Technologies Inc. PV3867
- Sequence (Q9UM73 1058-1620 limits assumed): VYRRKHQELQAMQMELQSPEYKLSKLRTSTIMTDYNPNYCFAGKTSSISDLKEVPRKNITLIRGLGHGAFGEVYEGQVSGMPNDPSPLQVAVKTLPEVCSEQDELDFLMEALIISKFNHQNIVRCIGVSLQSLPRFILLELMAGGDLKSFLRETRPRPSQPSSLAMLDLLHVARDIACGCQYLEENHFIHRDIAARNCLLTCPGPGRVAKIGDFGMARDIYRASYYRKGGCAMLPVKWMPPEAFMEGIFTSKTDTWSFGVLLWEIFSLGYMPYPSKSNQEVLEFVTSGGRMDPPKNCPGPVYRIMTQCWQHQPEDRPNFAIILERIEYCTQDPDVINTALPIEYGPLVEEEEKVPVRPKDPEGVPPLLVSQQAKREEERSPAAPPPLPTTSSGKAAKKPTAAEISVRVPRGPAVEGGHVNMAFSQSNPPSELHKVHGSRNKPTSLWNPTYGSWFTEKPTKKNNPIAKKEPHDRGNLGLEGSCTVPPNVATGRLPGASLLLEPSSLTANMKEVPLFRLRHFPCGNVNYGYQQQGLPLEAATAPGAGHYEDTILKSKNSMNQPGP
- procedureDetails: LanthaScreen TR-FRET in vitro inhibitory activity assay of ALK
- Assay type: biochemical
- conditionInfo: compound at 2ug/ml, read-out: Averaged Enzymatic Inhibition @ 2ug/ml (%)
inhibition at 2 µg/mL values by entry
parameter: inhibition at 2 µg/mL (%)

[[record]]
compound = "CCN1C(=O)c2cccc3c(S(=O)(=O)Nc4nc5ccccc5s4)ccc1c23"
parameter = "inhibition at 2 µg/mL"
measurednumber = 50.8

[[record]]
compound = "O=C(c1cc(C(=O)N2CCN(c3ccccc3)CC2)cc(C(=O)N2CCN(c3ccccc3)CC2)c1)N1CCN(c2ccccc2)CC1"
parameter = "inhibition at 2 µg/mL"
measurednumber = 80.6

[[record]]
compound = "Cc1ccc(C)c(N2CCN(C3CC(=O)N(c4ccc(N5C(=O)CC(N6CCN(c7cc(C)ccc7C)CC6)C5=O)cc4)C3=O)CC2)c1 (stereo not shown)"
parameter = "inhibition at 2 µg/mL"
measurednumber = 65.8

[[record]]
compound = "CN1C(=O)c2cccc3c(S(=O)(=O)Nc4nc[nH]n4)ccc1c23"
parameter = "inhibition at 2 µg/mL"
measurednumber = 53.3

[[record]]
compound = "O=C(CN1C(=O)C(=NNC(=O)c2ccc(NC(=O)c3ccccc3)cc2)c2ccccc21)Nc1ccccc1"
parameter = "inhibition at 2 µg/mL"
measurednumber = 50.4

[[record]]
compound = "COc1cc(/C=C2/C(=N)N3N=C(c4ccccc4Cl)SC3=NC2=O)ccc1O"
parameter = "inhibition at 2 µg/mL"
measurednumber = 70.5

[[record]]
compound = "Cc1ccc(N2C(=O)C(=Cc3ccc(C)s3)C(=O)N(c3ccc(C)cc3C)C2=S)c(C)c1"
parameter = "inhibition at 2 µg/mL"
measurednumber = 91.5


###

- experimentalSystem: recombinant human ALK protein (Homo sapiens)
- Construct: purchased Life Technologies Inc. PV3867
- procedureDetails: LanthaScreen TR-FRET in vitro inhibitory activity assay of ALK
- Format: biochemical
- conditionInfo: compound at 2ug/ml
Averaged Enzymatic Inhibition @ 2ug/ml (%) values by entry
parameter: Averaged Enzymatic Inhibition @ 2ug/ml (%)

[[record]]
compound = "Cc1ccccc1NC(=O)c1cc2ccccc2c(C=Nc2ccccc2Cl)c1O"
valueunits = "%"
measurednumber = 6.53

[[record]]
compound = "c1ccc(-c2oc3ncn4nc(COc5cccc6ccccc56)nc4c3c2-c2ccccc2)cc1"
valueunits = "%"
measurednumber = 13.565

[[record]]
compound = "CN1CCc2nc3sc(C(=O)c4ccc(-c5ccccc5)cc4)c(N)c3c(-c3cccs3)c2C1"
valueunits = "%"
measurednumber = -12.705

[[record]]
compound = "Cc1cccc(N(CC(=O)N/N=C/c2cccc(Br)c2)S(=O)(=O)c2ccccc2)c1C"
valueunits = "%"
measurednumber = 0.44

[[record]]
compound = "OC(CON=C1c2ccccc2-c2ccccc21)CN1CCN(c2ccc(Cl)cc2)CC1 (centres unmarked)"
valueunits = "%"
measurednumber = -10.47

[[record]]
compound = "O=C(COc1ccccc1-c1cnn(-c2ccccc2)c1)N/N=C/c1cc2ccccc2nc1Cl"
valueunits = "%"
measurednumber = 2.755

[[record]]
compound = "CC(NS(=O)(=O)c1cccc(Cl)c1)C(=O)Nc1cccc(-c2nc3ccccc3s2)c1 (centres unmarked)"
valueunits = "%"
measurednumber = 13.425

[[record]]
compound = "Cc1cc(C)c2oc(-c3cccc(NC(=O)COc4cc(Cl)c(Cl)cc4Cl)c3C)nc2c1"
valueunits = "%"
measurednumber = 2.22

[[record]]
compound = "O=C(Nc1ccc(Cl)cc1)C1CC(=O)N(c2ccc(Oc3ccccc3)cc2)C1 (centres unmarked)"
valueunits = "%"
measurednumber = -3.26

[[record]]
compound = "Cc1ccc(-c2cc(C(=O)N3CCN(C/C=C/c4ccccc4)CC3)c3ccccc3n2)cc1C"
valueunits = "%"
measurednumber = 10.91

[[record]]
compound = "COc1cccc(-c2cc3c(c(N)c2C#N)c(=O)oc2ccccc23)c1"
valueunits = "%"
measurednumber = 9.055

[[record]]
compound = "Cc1cccc(N=c2sc(C3=c4cc(C)ccc4=NC3=O)c(O)n2-c2cccc(C)c2)c1"
valueunits = "%"
measurednumber = -8.175

[[record]]
compound = "Cc1cccc(C)c1OCC(O)CN1CCC(CN2C(=O)c3cccc4cccc(c34)C2=O)CC1 (centres unmarked)"
valueunits = "%"
measurednumber = -20.41

[[record]]
compound = "Cc1ccccc1NC(=O)c1sc2nc(N)c(C#N)c(-c3ccc(C(C)C)cc3)c2c1N"
valueunits = "%"
measurednumber = 8.9

[[record]]
compound = "COc1ccccc1C(=O)Nc1ccc2oc(-c3cccc4c(Br)cccc34)nc2c1"
valueunits = "%"
measurednumber = -2.025

[[record]]
compound = "Cc1ccccc1-c1nnc(-c2ccc(-c3ccccc3)cc2)n1-c1ccccc1"
valueunits = "%"
measurednumber = 4.62

[[record]]
compound = "Cc1ccc(OS(=O)(=O)c2cccc(C(=O)Nc3ccccc3)c2)c(-n2nc3ccccc3n2)c1"
valueunits = "%"
measurednumber = -16.78

[[record]]
compound = "O=C(Nc1cccc(S(=O)(=O)N2CCN(C(=O)c3ccccc3)CC2)c1)C1CCCCC1"
valueunits = "%"
measurednumber = -9.72

[[record]]
compound = "COc1ccc(-c2cc(C(=O)Nc3ccccc3-c3ccccc3)c3ccccc3n2)cc1"
valueunits = "%"
measurednumber = 2.49

[[record]]
compound = "OC(CNCCc1ccccc1)Cn1c(-c2ccccc2)c(-c2ccccc2)c2ccc3ccccc3c21 (centres unmarked)"
valueunits = "%"
measurednumber = -33.405

[[record]]
compound = "CCCn1c(=O)c(C(=O)NNS(=O)(=O)c2ccc(Br)cc2)c(O)c2ccccc21"
valueunits = "%"
measurednumber = 9.265

[[record]]
compound = "Cc1ccc(NC(=O)c2sc3nc(N)c(C#N)c(-c4ccc(C(C)C)cc4)c3c2N)cc1Cl"
valueunits = "%"
measurednumber = 10.08

[[record]]
compound = "O=C(Cn1cc(/C=C2\\SC(=NC3CCCC3)N(C3CCCC3)C2=O)c2ccccc21)N1CCOCC1"
valueunits = "%"
measurednumber = -1.4


###

pIC50 values by entry
- experimentalSystem: recombinant human ALK protein (Homo sapiens)
- procedureDetails: LanthaScreen TR-FRET in vitro inhibitory activity assay of ALK
- conditionInfo: TR-FRET, 5 μM ATP, 1 hour at room temperature
pIC50: −log10 of the molar value.
parameter: pIC50

[[record]]
compound = "O=C(CN1C(=O)C(=NNC(=O)c2ccc(NC(=O)c3ccccc3)cc2)c2ccccc21)Nc1ccccc1 [Compound A2]"
parameter = "pIC50"
measurednumber = 6.08

[[record]]
compound = "Cc1cccc2cc3c(nc12)N(C(=O)c1ccc(S(=O)(=O)N2CCCCC2)cc1)CC3 [Compound M8]"
parameter = "pIC50"
measurednumber = 4.94

[[record]]
compound = "CCN1C(=O)c2cccc3c(S(=O)(=O)Nc4nc5ccccc5s4)ccc1c23 [Compound M7]"
parameter = "pIC50"
measurednumber = 5.22

[[record]]
compound = "Cc1c(C=C2C(=O)N(C)C(=S)N(C)C2=O)c2ccccc2n1Cc1ccccc1 [Compound M9]"
parameter = "pIC50"
measurednumber = 4.74


###

- experimentalSystem: recombinant human ALK protein (Homo sapiens, UniProt Q9UM73)
- procedureDetails: LanthaScreen TR-FRET in vitro inhibitory activity assay of ALK
- conditionInfo: TR-FRET, 5 μM ATP, 1 hour at room temperature
pIC50: −log10 of the molar value.
Short version: pIC50 at least 6 is Yes, less is No.

[[record]]
molecule = "Cc1ccc(C)c(N2CCN(C3CC(=O)N(c4ccc(N5C(=O)CC(N6CCN(c7cc(C)ccc7C)CC6)C5=O)cc4)C3=O)CC2)c1 (centres unmarked)"
classlabel = "No"

[[record]]
molecule = "Cc1ccc(N2C(=O)C(=Cc3ccc(C)s3)C(=O)N(c3ccc(C)cc3C)C2=S)c(C)c1"
classlabel = "Yes"

[[record]]
molecule = "CN1C(=O)c2cccc3c(S(=O)(=O)Nc4nc[nH]n4)ccc1c23"
classlabel = "No"

[[record]]
molecule = "O=C(c1cc(C(=O)N2CCN(c3ccccc3)CC2)cc(C(=O)N2CCN(c3ccccc3)CC2)c1)N1CCN(c2ccccc2)CC1"
classlabel = "Yes"

